Biological target: hNET (Homo sapiens, UniProt P23975)
Sequence (P23975 whole entry): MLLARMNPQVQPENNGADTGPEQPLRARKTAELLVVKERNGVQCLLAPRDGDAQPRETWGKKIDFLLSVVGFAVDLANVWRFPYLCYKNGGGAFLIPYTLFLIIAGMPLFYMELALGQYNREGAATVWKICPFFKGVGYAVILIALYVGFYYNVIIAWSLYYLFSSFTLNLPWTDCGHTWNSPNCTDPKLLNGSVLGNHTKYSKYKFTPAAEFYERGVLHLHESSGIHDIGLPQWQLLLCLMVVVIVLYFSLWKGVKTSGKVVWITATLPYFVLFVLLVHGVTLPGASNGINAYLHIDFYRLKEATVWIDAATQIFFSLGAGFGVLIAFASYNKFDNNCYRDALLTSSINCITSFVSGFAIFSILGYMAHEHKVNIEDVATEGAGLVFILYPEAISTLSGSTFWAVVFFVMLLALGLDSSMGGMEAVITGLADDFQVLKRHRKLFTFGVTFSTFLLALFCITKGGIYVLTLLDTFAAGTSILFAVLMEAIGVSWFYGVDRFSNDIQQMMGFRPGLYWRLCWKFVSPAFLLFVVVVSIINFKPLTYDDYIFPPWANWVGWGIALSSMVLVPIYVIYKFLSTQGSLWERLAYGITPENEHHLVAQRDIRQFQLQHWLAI
Experiment: Norepinephrine (NE) uptake assay in MDCK-Net6 cells stably transfected with human hNET
Details: [3H]NE uptake, test range 1 to 10,000 nM
Procedure: MDCK-Net6 cells, stably transfected with human hNET (Pacholczyk, T., R. D. Blakely, and S. G. Amara, Nature, 1991, 350(6316): p. 350-4) were cultured in growth medium containing high glucose DMEM (Gibco, Cat. No. 11995), 10% FBS (dialyzed, heat-inactivated, US Bio-Technologies, Lot FBD1129HI) and 500 μg/ml G418 (Gibco, Cat. No. 10131). Cells were plated at 300,000/T75 flask and cells were split twice weekly. […]
Structures can show the parent of a compound that is named as a salt.
Each item that follows carries a reported pEC50.
pEC50 is defined as minus the log10 of a concentration measured in mol/L.

OC1(C(CN2CCC(N3CCCCC3)CC2)c2cccc(C(F)(F)F)c2)CCCCC1 (centres unmarked) [Example 20, dihydrochloride]: 6.59
CN(C)C1CCN(CC(c2ccc(OCc3ccccc3)c(Cl)c2)C2(O)CCCCC2)CC1 (centres unmarked): 6.74
OC1(C(CN2CCC(N3CCCCC3)CC2)c2cccc(Cl)c2)CCCCC1 (centres unmarked) [Example 2, dihydrochloride]: 7.35

Entry OC1([C@H](CN2CCC(N3CCCC3)CC2)c2cccc(OC(F)(F)F)c2)CCCCC1 [Example 365, dihydrochloride] has what pEC50? 7.11

COc1ccc2cc([C@@H](CN3CCC(N4CCCCC4)CC3)C3(O)CCCCC3)ccc2c1 (single isomer, unassigned) [Example 353, dihydrochloride] , same question. 6.49

What about this compound? COc1ccc2cc([C@H](CN3CCC(N4CCCCC4)CC3)C3(O)CCCCC3)ccc2c1 (single isomer, unassigned) [Example 354, dihydrochloride] 6.40
